# Assayed system: MCR-1 (Homo sapiens, UniProt Q01726)
# Construct: expressed in transfected cells; host or cells: HEK 293
# Sequence (Q01726 whole entry): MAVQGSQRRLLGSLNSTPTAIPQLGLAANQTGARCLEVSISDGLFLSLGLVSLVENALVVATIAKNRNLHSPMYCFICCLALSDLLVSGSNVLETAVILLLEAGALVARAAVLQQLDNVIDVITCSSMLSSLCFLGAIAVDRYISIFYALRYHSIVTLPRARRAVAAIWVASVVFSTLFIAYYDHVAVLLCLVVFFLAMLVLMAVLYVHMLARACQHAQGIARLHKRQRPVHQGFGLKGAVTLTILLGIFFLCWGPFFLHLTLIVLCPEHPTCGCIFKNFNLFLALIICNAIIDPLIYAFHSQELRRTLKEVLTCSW
# Assay overview: Melanocortin receptor binding assay, competition with 125I-HP 467, HEK 293 cells expressing hMCR-1
# Condition: TRG 2405 section; inhibition of binding of 125I-HP 467, HEK 293 cells expressing MCR-1; read-out: MC-1 IC50
Measured quantity: IC50 (µM)

Guide cases for IC50, answers given:
Compound: NCCN1Cc2ccccc2C(CNC2CCCCC2)C1c1ccc([N+](=O)[O-])o1 (stereo not drawn)
Assayed system: MCR-1 (Homo sapiens, UniProt Q01726)
Observed: 8.66

Compound: CNC(CN)CN1Cc2ccccc2C(CNC2CCCCC2)C1c1ccc(O)cc1 (stereo not drawn)
Assayed system: MCR-1 (Homo sapiens, UniProt Q01726)
Observed: 17

Compound: CNC(CN)CN1Cc2ccccc2C(CNC2CCCCC2)C1c1ccc(C(F)(F)F)cc1 (stereo not drawn)
Assayed system: MCR-1 (Homo sapiens, UniProt Q01726)
Observed: 10.3

Compound: CNC(CN)CN1Cc2ccccc2C(CNC2CCCCC2)C1c1ccc(Cl)cc1Cl (stereo not drawn)
Assayed system: MCR-1 (Homo sapiens, UniProt Q01726)
Observed: 12.2

(a) Cc1cccc(C2C(CNC3CCCCC3)c3ccccc3CN2CCN)c1 (stereo not drawn)
(b) CNC(CN)CN1Cc2ccccc2C(CNC2CCCCC2)C1c1ccc([N+](=O)[O-])o1 (stereo not drawn)
-- ask Two entries are listed, a and b . Which one carries the higher IC50? Indicate which entry you chose by stating its label.
-- reply a
(a: 14.3 µM, b: 4.81 µM)
